Experiment: small-molecule binders of probe aLefty1, primary screen, biochemical, small-molecule microarray, 635/667 nm fluorescence (AID 1153);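 note: score merges spot fluorescence with signal-to-noise ratio from the scanned slide images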
Conditions: higher = more signal
Hi, to clarify the labels: yes (1) covers composite z-score from 0.3 upward, no (0) covers anything below 0.3.

# MOLECULE, DISCRETE_LABEL
records = [
    ("O=C1OCCC=C[C@H]2OC34C=CCN(c5ccc6ccccc6c5)C(=O)[C@H]3N(CCCCCO)C(=O)[C@@H]4C12 (stereo not given in full)", "yes (1)"),
    ("CCOC(=O)C1=C[C@@H](C(C)C)N(S(=O)(=O)c2ccc(C)cc2)[C@H]1c1ccc(C(C)C)cc1", "no (0)"),
    ("O=C/C=C/c1ccc(Cl)cc1", "no (0)"),
    ("COC(=O)[C@@]1(Cc2ccc(F)cc2)[C@H]2c3cc(C(=O)N(C)C)n(CCc4ccccn4)c3C[C@H]2CN1C(=O)c1ccccc1", "yes (1)"),
    ("COCCOC(=O)N1C(=O)[C@@]2(c3cc(C#CCNC(N)=O)ccc31)[C@H](c1ccccc1OCCO)N1[C@H](c3ccccc3)[C@H](c3ccccc3)OC(=O)[C@H]1[C@@H]2C(N)=O", "no (0)"),
    ("CCOC(=O)C[C@H]1[C@H](OC(=O)Cc2ccc3c(c2)OCO3)[C@@H](NC(=O)c2ccc(-c3ccccc3)cc2)c2cc(OCCCO)ccc2N1C(=O)c1ccccc1", "no (0)"),
    ("O=C1O[C@H](c2ccccc2)[C@H](c2ccccc2)N2[C@H]1[C@@H](C(=O)N1CCN(c3ncccn3)CC1)[C@]1(C(=O)Nc3ccccc31)[C@H]2c1ccc(OCCO)cc1", "no (0)"),
    ("CC(C)(C)OC(=O)CC[C@@]1(C(=O)O)N=C(c2ccc(OCCCO)cc2)O[C@@H]1c1ccccc1N=[N+]=[N-]", "no (0)"),
    ("Cc1ccccc1C(O)C1C=CC2C(=O)N(C)C(=O)C2N1Nc1ccccc1 (stereo not given)", "no (0)"),
    ("Cc1ccc(F)cc1S(=O)(=O)N[C@@H]1CCN(Cc2ccc(-c3ccccc3)cc2)C1", "no (0)"),
    ("[N-]=[N+]=Nc1ccccc1[C@H]1OC(c2ccc(OCCCO)cc2)=N[C@@]1(CCS(=O)(=O)c1ccccc1)C(=O)O", "yes (1)"),
    ("CS(=O)(=O)CCOC(=O)C1=CC(CCCO)=CC(c2cccs2)N(Cc2cc3c(cc2Br)OCO3)C=C1C(=O)OCCS(C)(=O)=O (stereo not given)", "no (0)"),
    ("CCCN1C(=O)[C@@]2(CCC(=O)OC(C)(C)C)N=C(c3ccc(OCCCO)cc3)O[C@H]2c2ccccc21", "no (0)"),
    ("CC(C)c1ccc(NN2C(C(O)c3cccc(O)c3)C=CC3C(=O)N(c4ccccc4)C(=O)C32)cc1 (stereo not given)", "no (0)"),
    ("CC(C)C(O)C1C=CC2C(=O)N(c3ccccc3)C(=O)C2N1Nc1ccc(C#N)cc1 (stereo not given)", "yes (1)"),
]
